The reported numbers originate from PubChem BioAssay (NCI).

System: SN12C renal
Assay: NCI-60 one-dose screen, 48 h (100 = growth as untreated, 0 = no growth, -100 = all killed)
Conditions: 10 µM
This is part of a sample that, as a whole, favours compounds with a hit. Of some 83,000 tested, about 20% had one in any assay.
parameter: growth (%)
Lab book: enter the figure in %, no units written.

Please review the following examples before continuing.
- compound: "COc1ccccc1CNCCCN1C(=O)c2ccc3c4c(ccc(c24)C1=O)C(=O)N(CCCN)C3=O"
  parameter: "growth"
  result number: -89
- compound: "CN1CCC2(CC1)NC(=O)c1c(c3ccc(Cl)c(Cl)c3n1C)C2C#N (stereo not drawn)"
  parameter: "growth"
  result number: 64.3
- compound: "O=C(CCCCC(=O)Nc1ccc2c(c1)/C(=C/c1ccc[nH]1)C(=O)N2)NO"
  parameter: "growth"
  result number: 93.1
- compound: "COc1ccc2c(c1)/C(=C\\c1c[nH]c3ccc(OC)cc13)C(=O)N2"
  parameter: "growth"
  result number: 52.8
- compound: "COC(=O)C1(C)Cc2cc(OC(C)=O)c(OC(C)=O)cc2N1 (stereo not drawn)"
  parameter: "growth"
  result number: 88.8

(Q) Look up growth for this compound: Cc1c(Cl)cccc1NC(=O)c1sc2nc3c(cc2c1N)C(=O)CCC3
(A) 30.8

(Q) How about this compound: CC(=O)CSC(C)=O
(A) 100

(Q) How about this compound: CSCCCNC(=O)c1ccc2c(c1)/C(=C/c1[nH]c(C)cc1C)C(=O)N2
(A) 22

(Q) How about this compound: COc1ccc(-c2ccc3cc(C(=O)Nc4ccc(O)c(C(=O)/C=C/c5cc(OC)c(OC)c(OC)c5)c4)ccc3c2)cc1
(A) 92.6

(Q) How about this compound: CCOCCOCCOCCOCCOCCOCCOCCOCCOCCO (tested in a mixture with another compound)
(A) 10.5

(Q) How about this compound: COC(=O)c1ccc(=O)oc1
(A) 85.8

(Q) How about this compound: COc1ccc(-c2nc(-c3nc4cc(Cl)c(Cl)cc4[nH]3)c3ccccn23)cc1
(A) 81.8

(Q) How about this compound: N#Cc1cccc(OCc2nc(N)nc(N)c2-c2ccc(Cl)c(Cl)c2)c1
(A) 33.3

(Q) How about this compound: Cc1cc2ccccc2nc1-c1ccccc1F
(A) 110

----------
Tested on: MALME-3M melanoma
Test: NCI-60 one-dose screen, 48 h
Settings: 10 µM
This is part of a sample that, as a whole, favours compounds with a hit. Of some 83,000 tested, about 20% had one in any assay. The source made the active and inactive calls. The calls were made as follows: active = growth percent below 10; inactive = the rest.
Outcome field: choose from active, inactive

Field: example entries. Status: answers known.
- molecule: "COc1cc2cc3c(nc2cc1OC)CCN3Cc1ccc(NC(=O)c2ccc(Cl)c(C(F)(F)F)c2)cc1"
  assigned class: "inactive"
- molecule: "c1ccc(CP(Cc2ccccc2)c2ccccc2)cc1"
  assigned class: "inactive"
- molecule: "COc1ccc(-c2nc3ncccn3c2-c2nnc(-c3ccsc3C)o2)cc1"
  assigned class: "inactive"
- molecule: "O=C1N=NC2=C1c1c3ccccc3c(O)n1CC2"
  assigned class: "inactive"
- molecule: "N#CCCN1C/C(=C/c2ccc(Br)cc2)C(=O)/C(=C/c2ccc(Br)cc2)C1"
  assigned class: "active"
- molecule: "N=C(N)c1ccc(-c2ccc(-c3cccs3)s2)s1"
  assigned class: "active"

Read the next record carefully.
(Q) Please state the recorded outcome for this molecule: O=S(=O)(NCCCNc1nccc(-c2c(-c3ccc(F)cc3)nc3sccn23)n1)c1ccc2ccccc2c1
(A) inactive

----------
Test system: SNB-75 CNS
Assay: NCI-60 one-dose screen, 48 h
Conditions: 10 µM
About 83,000 compounds went through this panel and 20% of them were active in at least one assay; those are over-represented in the sample as a whole. Activity calls are given as the source filed them. Rule for the calls: active = growth percent below 10; inactive = the rest.
Outcome field: choose from active, inactive

- molecule: "CCCCCCCC(C)NCCO (stereo unspecified)"
  assigned class: "inactive"
- molecule: "Cc1[nH]nc2c1C(c1cnn(C)c1)C(C#N)=C(N)O2 (stereo unspecified)"
  assigned class: "inactive"
- molecule: "COc1ccc(S(=O)(=O)NCCCNc2nccc(-c3c(-c4ccc(F)cc4)nc4sccn34)n2)cc1"
  assigned class: "inactive"
- molecule: "COc1ccc(-c2nc(-c3nc4ccc(Cl)cc4[nH]3)c3ccccn23)cc1"
  assigned class: "active"
- molecule: "COc1cc(C2CC(c3ccc(Nc4ccnc5cc(Cl)ccc45)cc3)=NN2c2ccc(Cl)cc2)cc(OC)c1OC (stereo unspecified)"
  assigned class: "inactive"
- molecule: "COc1ccc(-c2cc(-c3ccc(N(C)C)cc3)c(C#N)c(N3CCCC3)n2)cc1"
  assigned class: "inactive"
- molecule: "CCn1cc(C(=O)O)c(=O)c2cnc(N3CCCC3)nc21"
  assigned class: "inactive"
- molecule: "O=C(NC(Cc1ccc(O)cc1)C(=O)N=Nc1c(O)[nH]c2ccccc12)c1ccccc1 (stereo unspecified)"
  assigned class: "inactive"
- molecule: "CCN(CC)CCC(CNc1c(C)cnc2cc(Cl)ccc12)c1ccc(Cl)c(Cl)c1 (stereo unspecified)"
  assigned class: "inactive"
- molecule: "Nc1c(C(=O)Nc2ccccc2Cl)sc2nc3c(cc12)C(=O)CCC3"
  assigned class: "inactive"

(Q) Please state the recorded outcome for this molecule: CSc1nc(=O)n(Cc2ccc(Cl)cc2)c(=O)[nH]1
(A) inactive

(Q) How about this molecule: COc1ccc(/C(=C2\O[C@@H]([C@H]3COC(C)(C)O3)[C@H]3OC(C)(C)O[C@@H]23)c2cc(OC)c(OC)c(OC)c2)cc1O
(A) active

(Q) How about this molecule: O=C1OCC2=C1C(c1cccc(Cl)c1)c1cc3c(cc1N2CCO)OCCO3 (stereo unspecified)
(A) inactive

(Q) How about this molecule: CC(=O)/C(=C/c1ccccc1)C(=O)CC(C)C
(A) inactive

(Q) How about this molecule: CCN(CC)Cc1cc(Nc2ccnc3cc(Cl)ccc23)ccc1OC
(A) inactive

(Q) How about this molecule: Nc1c(C(=O)Nc2cccc(Br)c2)sc2nc3c(cc12)C(O)CCC3 (stereo unspecified)
(A) inactive

----------
System: U251 CNS
Test: NCI-60 one-dose screen, 48 h
Conditions: 10 µM
This is part of a sample that, as a whole, favours compounds with a hit. Of some 83,000 tested, about 20% had one in any assay. Active and inactive are the calls of the source. How the source made its calls: active means growth percent below 10; inactive means the rest.
Outcome field: choose from class 1 (active), class 0 (inactive)

Field: example entries. Status: answers known.
- compound: "COc1ccc(/C=C2/CN(C(=O)c3ccc(C)cc3)C/C(=C\\c3ccc(OC)cc3)C2=O)cc1"
  assigned class: "class 0"
- compound: "CC1CN(Cc2ccccc2)C(=O)NC1=O (configuration not stated)"
  assigned class: "class 0"
- compound: "COc1cc(/C=C/C(=O)c2ccc(Cl)cc2)ccc1OS(=O)(=O)c1ccc(C)cc1"
  assigned class: "class 0"
- compound: "Nc1nc(N=Nc2ccc(O)cc2)cc(=O)[nH]1"
  assigned class: "class 0"
- compound: "COc1cc(-c2nn3c(/C=C4/C(=O)Nc5ccccc54)c(-c4ccc(C)cc4)nc3s2)cc(OC)c1OC"
  assigned class: "class 0"
- compound: "C/C(N)=C(\\C#N)C(=O)c1ccccc1"
  assigned class: "class 0"
- compound: "Nc1ccn(C2CC(O)C(CO)O2)c(=O)n1 (configuration not stated)"
  assigned class: "class 0"
- compound: "CC(=O)O[C@]1(C)CC[C@H]2[C@H](CNCCc3ccc(Cl)cc3)C(=O)O[C@@H]2C2=C(C)C(=O)C[C@H]21"
  assigned class: "class 0"

Read the next record carefully.
(Q) Please state the recorded outcome for this compound: O=c1c2ccccc2nc(SCCN2CCCCC2)n1CCc1ccccc1
(A) class 0

----------
Tested on: HT29 colon
Assay: NCI-60 one-dose screen, 48 h (100 = growth as untreated, 0 = no growth, -100 = all killed)
Details: 10 µM
About 83,000 compounds went through this panel and 20% of them were active in at least one assay; those are over-represented in the sample as a whole. Active and inactive are the calls of the source. How the source made its calls: active means growth percent below 10; inactive means the rest.
Below, each entry is listed alongside its reported growth.

- compound: "COc1ccc(S(=O)(=O)Nc2c(/C=C\\c3cc(OC)c(OC)c(OC)c3)ccc(OC)c2O)cc1"
  result: "11.7% (inactive)"

(Q) Param readout= growth; system= HT29 colon; entry= COc1ccc(/C(=C2\O[C@@H]([C@H]3COC(C)(C)O3)[C@H]3OC(C)(C)O[C@@H]23)c2cc(OC)c(OC)c(OC)c2)cc1O ; returns value.
(A) 107% (inactive)

(Q) How about this compound: Nc1nccc(Nc2ccccc2)n1
(A) 121% (inactive)

(Q) How about this compound: O=C(Nc1cccc(-n2cc(-c3ccncc3)c(-c3ccc(O)c(Cl)c3)n2)c1)Nc1ccc(Cl)c(Cl)c1
(A) 37.8% (inactive)

(Q) How about this compound: O=C1OCC2=C1C(c1cccc(Br)c1)c1cc3c(cc1N2CCO)CCC3 (stereo unspecified)
(A) -12.1% (active)

(Q) How about this compound: C#Cc1ccc(-n2c(/C=C/c3ccc4ccccc4n3)nc3ncccc3c2=O)cc1
(A) -61.4% (active)

(Q) How about this compound: Clc1ccc(Nc2ccnc(NCCNc3ccnc4cc(Cl)ccc34)n2)cc1
(A) -37.4% (active)

(Q) How about this compound: c1ccc2c(-c3nc(N4CCOCC4)c4c5c(sc4n3)CCCCCC5)cccc2c1
(A) 101% (inactive)

(Q) How about this compound: CCOC(=O)CCC(NC(=O)c1ccc(N)cc1)C(=O)OCC (stereo unspecified)
(A) 99.4% (inactive)
